- experimental.system: T1, Bbc1, P47068
- T1 sequence (P47068 1-78, looked up): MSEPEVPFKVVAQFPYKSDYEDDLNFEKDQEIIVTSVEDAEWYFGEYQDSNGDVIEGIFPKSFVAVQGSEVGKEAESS
- protocol: SPOT array
- condition.context: median of control spots 796
measure: SPOT intensity

[
  {
    "binder": "QRKSLRRPTLSKPAV",
    "SPOT intensity": 37
  },
  {
    "binder": "FPPKRKPLLRPQRSD",
    "SPOT intensity": 266
  },
  {
    "binder": "RRASLFPRDPKRLRP",
    "SPOT intensity": 165
  },
  {
    "binder": "RSRRSSFAYPQQVAI",
    "SPOT intensity": 24
  }
]

(A) YSRKKLPVVLSKMTL
(B) SSSSSPPPLPTRRDH
(C) FYHRPAPKPPVTKKV
-- ask rank_up(items): orders items by reported SPOT intensity in ascending numerical order. Returns: the labels arranged in the requested order.
-- reply B, A, C
(B: 3, A: 18, C: 45)

// data source = paper PMC2756588
